- test.system: T1, DGI-2 polypeptide (UniProt Q15004 1-111, limits assumed)
- T1 construct: Vector-derived residues or tag of pIVEX2.3 are not described for this construct; also called KIAA0101
- T1 sequence (looked up): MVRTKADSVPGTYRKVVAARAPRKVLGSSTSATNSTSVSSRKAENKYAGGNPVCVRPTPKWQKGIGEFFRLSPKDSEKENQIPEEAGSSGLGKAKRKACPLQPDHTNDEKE
- test.details: phage ELISA, 405 nm; DGI-2 coated
Grouping by measured DGI-2 (OD) is done with the following cut points: class A = under 1 OD, class B = from 1 OD up to 2 OD, class C = 2 OD and over

{"columns": ["binder", "category"],
 "data": [
  ["LTWGPQFGSLQVYSRHRGLPAAAGAPVPYPDPLEPRP (not shown: phage gene III coat protein (pCANTAB5E)) [DGI-2-20R-4-E4]", "class B"],
  ["FSSTGILLRSGRATAVGHVTAAAGAPVPYPDPLEPRP (not shown: phage gene III coat protein (pCANTAB5E)) [DGI-2-20F-3-A6]", "class B"],
  ["DGI-2-40F-3-B1 (not shown: phage gene III coat protein (pCANTAB5E)) peptide: HGTRLRGVDYVMTWAGWQGYSSRKHVQQAVAGSSPGSDELAAAGAPVPYPDPLEPRP", "class A"],
  ["LHRLGQSMGGTLDHLQGWGVAAAGAPVPYPDPLEPRP (not shown: phage gene III coat protein (pCANTAB5E)) [DGI-2-20R-4-E5]", "class B"],
  ["YDQVWNSLLAAVLGGQELVNAAAGAPVPYPDPLEPRP (not shown: phage gene III coat protein (pCANTAB5E)) [DGI-2-20F-3-D112]", "class B"],
  ["DGI-2-40F-3-B122 (not shown: phage gene III coat protein (pCANTAB5E)) peptide: HSGNRQSGSRRTHLLNIFCSSDTFVFPGWSAYLSRVCPGDAAAGAPVPYPDPLEPRP", "class B"],
  ["DGI-2-40F-3-A7 (not shown: phage gene III coat protein (pCANTAB5E)) peptide: CAYRWGLFRGPGRVDYDLQVVGIMMWPGPIPDRSSRGSVAAAAGAPVPYPDPLEPRP", "class A"],
  ["GLRACDTYLGFCVGARRIDDAAAGAPVPYPDPLEPRP (not shown: phage gene III coat protein (pCANTAB5E)) [DGI-2-20F-3-B102]", "class C"],
  ["DGI-2-40F-3-B116 (not shown: phage gene III coat protein (pCANTAB5E)) peptide: GVVRAQQGLRYELQGDRYRLRRTQWLTVTYCSPSWAFAGCAAAGAPVPYPDPLEPRP", "class B"],
  ["DGI-2-40F-4-F12 (not shown: phage gene III coat protein (pCANTAB5E)) peptide: GLYRRAGDASVGFSRWGRFDCQVYFSVECLLGSSWGGYSAAAGAPVPYPDPLEPRP", "class C"],
  ["RCFQDGRMLALSPTYLIRRSVSPLVVGPLPTPAAAGAPVPYPDPLEPRP (not shown: phage gene III coat protein (pCANTAB5E)) [DGI-2-40F-3-A24]", "class B"],
  ["LHFGSVMGWRPPGSLWSRPFGQVHPRSWSGSAAAGAPVPYPDPLEPRP (not shown: phage gene III coat protein (pCANTAB5E)) [DGI-2-40F-3-D11]", "class C"],
  ["DGI-2-40F-3-C7 (not shown: phage gene III coat protein (pCANTAB5E)) peptide: HPWVTNMLVFQRPPPPGFWLSDTTPRQRNGLGQVERPSVDAAAGAPVPYPDPLEPRP", "class B"],
  ["LSVFRPGQFPHVGARGVSRTAAAGAPVPYPDPLEPRP (not shown: phage gene III coat protein (pCANTAB5E)) [DGI-2-20R-4-G32]", "class B"],
  ["DGI-2-40F-3-A12 (not shown: phage gene III coat protein (pCANTAB5E)) peptide: RRTQPAYRSGADDRTSGFYCYVTSALSAGAWMPFLPRRLAAAAGAPVPYPDPLEPRP", "class A"],
  ["WAGSTDLWQLWSLWVKPELRAAAGAPVPYPDPLEPRP (not shown: phage gene III coat protein (pCANTAB5E)) [DGI-2-20F-3-B7]", "class B"],
  ["DAGIGWVGSMWFPPGCIGACAAAGAPVPYPDPLEPRP (not shown: phage gene III coat protein (pCANTAB5E)) [DGI-2-20R-4-E82]", "class C"],
  ["DGI-2-40F-3-B10 (not shown: phage gene III coat protein (pCANTAB5E)) peptide: MQAASTLSTYMGAIRMGYPILHWDRGGVQRVDPGLYRGRVAAAGAPVPYPDPLEPRP", "class B"],
  ["DGI-2-40F-3-B6 (not shown: phage gene III coat protein (pCANTAB5E)) peptide: QSNVWVLVGVIMQGVWYQRQHYCVYVMLLSDQVSVLLAVAAAAGAPVPYPDPLEPRP", "class A"],
  ["GNKCFPPHDLFWDPCDQLQSAAAGAPVPYPDPLEPRP (not shown: phage gene III coat protein (pCANTAB5E)) [DGI-2-20R-4-F6]", "class C"],
  ["LTPYSLARSWLSGRPSTGATAAAGAPVPYPDPLEPRP (not shown: phage gene III coat protein (pCANTAB5E)) [DGI-2-20F-3-C12]", "class C"],
  ["DGI-2-40F-3-D12 (not shown: phage gene III coat protein (pCANTAB5E)) peptide: QGSAHVVRPPGVYDVPWKVGMFFHPQNWPNSWGRAYFRSGAAAGAPVPYPDPLEPRP", "class C"]
]}
